Please go through the items and note down their IC50.
target: hRR (hRRM1 and hRRM2) (Homo sapiens, UniProt P23921); test: biochemical
Sequence (P23921 whole entry): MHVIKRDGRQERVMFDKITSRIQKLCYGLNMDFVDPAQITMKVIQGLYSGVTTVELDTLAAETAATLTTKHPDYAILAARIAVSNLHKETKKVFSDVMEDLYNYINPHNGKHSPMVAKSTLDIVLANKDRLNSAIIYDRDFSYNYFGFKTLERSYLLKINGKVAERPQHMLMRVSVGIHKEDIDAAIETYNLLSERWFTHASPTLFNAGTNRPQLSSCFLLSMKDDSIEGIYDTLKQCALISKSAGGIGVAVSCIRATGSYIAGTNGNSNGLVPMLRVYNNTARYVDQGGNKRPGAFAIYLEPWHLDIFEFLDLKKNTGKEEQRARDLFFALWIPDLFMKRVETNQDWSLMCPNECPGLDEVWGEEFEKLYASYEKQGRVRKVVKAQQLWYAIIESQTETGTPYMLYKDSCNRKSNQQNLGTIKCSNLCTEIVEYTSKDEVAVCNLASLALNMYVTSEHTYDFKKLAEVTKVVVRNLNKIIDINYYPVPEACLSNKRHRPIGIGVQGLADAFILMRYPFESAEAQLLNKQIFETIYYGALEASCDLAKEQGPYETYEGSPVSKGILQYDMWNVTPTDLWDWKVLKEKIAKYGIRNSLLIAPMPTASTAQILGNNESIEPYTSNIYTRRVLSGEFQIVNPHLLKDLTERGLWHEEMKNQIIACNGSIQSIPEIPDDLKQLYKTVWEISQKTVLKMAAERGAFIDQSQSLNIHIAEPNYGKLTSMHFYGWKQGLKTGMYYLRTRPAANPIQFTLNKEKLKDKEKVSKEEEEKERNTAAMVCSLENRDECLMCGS
Sequence (P31350 whole entry partner): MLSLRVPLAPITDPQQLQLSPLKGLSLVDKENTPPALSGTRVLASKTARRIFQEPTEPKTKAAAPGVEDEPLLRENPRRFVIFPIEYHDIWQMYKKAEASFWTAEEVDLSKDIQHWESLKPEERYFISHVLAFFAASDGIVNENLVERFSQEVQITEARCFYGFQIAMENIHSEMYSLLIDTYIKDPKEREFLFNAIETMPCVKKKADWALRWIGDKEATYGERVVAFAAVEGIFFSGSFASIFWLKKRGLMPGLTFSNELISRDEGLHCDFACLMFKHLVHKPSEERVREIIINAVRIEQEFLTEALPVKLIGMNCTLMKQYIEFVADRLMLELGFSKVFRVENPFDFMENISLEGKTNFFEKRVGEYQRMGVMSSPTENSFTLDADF
The reply should be a number in µM, with the unit left off.

# query: IC50 of entry O=C1C=Cc2cc(C3=NC4C=CC=CC4S(=O)(=O)N3)c(=O)oc2C1 (centres unmarked)
13.2

# query: IC50 of entry `O=C(c1ccccc1O)n1cc(-c2c(O)ccc3ccccc23)nn1`
8.1

# query: IC50 of entry `O=C(O)c1ccccc1-c1ccccc1C(=O)c1ccc2ccccc2n1`
3.8

# query: IC50 of entry `O=c1nc(-n2cc(-c3ccc4cc(O)ccc4c3)nn2)cc[nH]1`
269

# query: IC50 of entry `COc1ccc(C(=O)N/N=C/c2c(O)ccc3ccccc23)cc1`
94.1

# query: IC50 of entry `Cc1c(-n2cc(-c3ccc4cc(O)ccc4c3)nn2)c(=O)n(-c2ccccc2)n1C`
31.3

# query: IC50 of entry `COc1cc(C(=O)N/N=C/c2c(O)ccc3ccccc23)ccc1O`
687

# query: IC50 of entry `Cc1ccc(C(=O)N/N=C/c2c(O)ccc3ccccc23)cc1`
86.8
